# reported refractive index; entries follow
experiment: refractive index (Na D-line) (dimensionless); settings: 288.15 K; 101.33 kPa; Liquid; Standard Abbe refractometry
Numbers after ± are expanded uncertainties.

Example entries begin here.
1) COC(=O)Oc1ccccc1 [methyl phenyl carbonate] :: 1.4991 ± 0.0004
2) CO [methanol] :: 1.3306 ± 0.0004
3) COC(=O)OC [dimethyl carbonate] :: 1.371 ± 0.0004

Next compound, please.
## Task I would be grateful if you could share the reported refractive index for COc1ccccc1 [anisole] .
## Result 1.5198 ± 0.0004

* * *

conditions: Crystal; visual observation
Result type: Normal melting temperature (°C)
Please reply with the bare figure in °C and do not write the unit itself.

1. COC(=O)OC [dimethyl carbonate] :: 5.01
2. COC(=O)Oc1ccccc1 [methyl phenyl carbonate] :: -31.00
3. Oc1ccccc1 [phenol] :: 40.90

Next compound, please.
## Task I would be grateful if you could share the reported Normal melting temperature for CO [methanol] .
## Result -98.00

* * *

details: 293.15 K; 101.33 kPa; Liquid; Capillary tube (Ostwald / Ubbelohde) method
# reported kinematic viscosity; entries follow
Please reply with the bare figure in m2/s and do not write the unit itself.

1. COC(=O)Oc1ccccc1 [methyl phenyl carbonate] :: 4.27e-06
2. COc1ccccc1 :: 1.04e-06
3. COC(=O)OC [dimethyl carbonate] :: 5.7e-07

Next compound, please.
## Task I would be grateful if you could share the reported kinematic viscosity for CO .
## Result 7.03e-07
